Biological target: TLR10 (Homo sapiens, UniProt Q9BXR5)
Sequence (Q9BXR5 20-576): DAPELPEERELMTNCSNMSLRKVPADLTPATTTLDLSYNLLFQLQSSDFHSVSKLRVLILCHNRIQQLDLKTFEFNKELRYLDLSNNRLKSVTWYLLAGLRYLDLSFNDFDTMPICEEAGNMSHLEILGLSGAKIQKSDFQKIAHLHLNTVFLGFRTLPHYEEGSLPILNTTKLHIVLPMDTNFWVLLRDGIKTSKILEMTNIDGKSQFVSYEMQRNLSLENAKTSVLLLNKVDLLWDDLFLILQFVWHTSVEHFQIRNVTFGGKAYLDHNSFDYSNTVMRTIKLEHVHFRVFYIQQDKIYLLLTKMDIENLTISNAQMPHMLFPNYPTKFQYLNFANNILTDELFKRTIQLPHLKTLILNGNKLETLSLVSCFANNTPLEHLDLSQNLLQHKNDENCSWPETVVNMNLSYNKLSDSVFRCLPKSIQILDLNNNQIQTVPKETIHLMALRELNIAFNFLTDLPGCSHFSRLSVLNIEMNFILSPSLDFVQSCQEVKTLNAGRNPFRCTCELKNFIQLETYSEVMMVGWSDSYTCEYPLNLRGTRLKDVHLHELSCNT
Experiment: mRNA display affinity selection against TLR10, NGS abundance
Format: binding
Set-up: Chimera protein (extracellular domain, amino acid 20-576;); Fc (chimera); purchased R&D system #6619-TR-050
Details: TLR10 selection pulldown (-); Top100 selection hits, NGS
parameter measured: Library fraction
Just the number, please, no unit attached.

Reference set, count: 3
{"sequence input": "STHIYSKQGIRG", "Library fraction": 0.001}
{"sequence input": "VGRVYIKSS", "Library fraction": 0.00364}
{"sequence input": "SNSNRYGGLITS", "Library fraction": 0.005}

Query :: # return recorded Library fraction for entry SVDFGQVVIH
Result :: 0.00054

Query :: Report measured Library fraction; entry is CVHFCWQRKLAY
Result :: 0.00152

Query :: Answer with the recorded Library fraction for the sequence listed here: CIIFVRQNKCAF
Result :: 0.00053

Query :: Give recorded Library fraction. SVVVWHAQPIMG
Result :: 0.006

Query :: Read the entry SLELSRVNVVIH and write its reported Library fraction.
Result :: 0.00163

---

Biological target: TLR10 (Homo sapiens, UniProt Q9BXR5)
Sequence (Q9BXR5 20-576): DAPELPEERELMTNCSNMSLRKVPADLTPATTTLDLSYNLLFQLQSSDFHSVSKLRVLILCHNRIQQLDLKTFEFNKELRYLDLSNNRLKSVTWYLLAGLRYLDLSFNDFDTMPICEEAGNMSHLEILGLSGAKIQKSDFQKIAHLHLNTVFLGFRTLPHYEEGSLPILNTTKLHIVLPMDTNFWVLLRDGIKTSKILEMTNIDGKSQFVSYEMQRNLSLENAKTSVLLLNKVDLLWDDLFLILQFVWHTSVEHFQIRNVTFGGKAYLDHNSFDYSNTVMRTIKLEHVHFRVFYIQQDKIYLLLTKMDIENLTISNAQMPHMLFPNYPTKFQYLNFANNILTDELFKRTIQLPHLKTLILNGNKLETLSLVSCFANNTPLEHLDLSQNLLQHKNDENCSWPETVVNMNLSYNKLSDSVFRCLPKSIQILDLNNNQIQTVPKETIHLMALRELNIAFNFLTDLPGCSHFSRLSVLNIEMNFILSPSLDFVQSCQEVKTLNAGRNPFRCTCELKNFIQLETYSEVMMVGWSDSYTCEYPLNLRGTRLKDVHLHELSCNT
Experiment: mRNA display affinity selection against TLR10, NGS abundance
Format: binding
Set-up: Chimera protein (extracellular domain, amino acid 20-576;); Fc (chimera); purchased R&D system #6619-TR-050
Details: TLR10 selection pulldown (+); Top100 selection hits, NGS
The entries below come with measured Raw reads values attached.

Recorded Raw reads, per entry:
{"sequence input": "SILFPHQQKLLF", "result": 43}
{"sequence input": "VGQVLVKSS", "result": 59}
{"sequence input": "RILFPLQNSIAF", "result": 40}
{"sequence input": "STIVFTFQCIKG", "result": 1142}
{"sequence input": "SMLLPMQRVVMF", "result": 18}
{"sequence input": "SIETTNMVLL", "result": 30}
{"sequence input": "IGLVRIKSS", "result": 117}
{"sequence input": "GYAVGKLLIRV", "result": 25}
{"sequence input": "GCLHGNVPVYY", "result": 218}
{"sequence input": "SILFSIQNKLVL", "result": 20}

Query :: State, for TLR10 (Homo sapiens, UniProt Q9BXR5), measured Raw reads of the sequence listed here: SPIHFRSVL
Result :: 46

Query :: Param request: Raw reads | system TLR10 (Homo sapiens, UniProt Q9BXR5) | item TNPYGGNVGW
Result :: 13980

Query :: Name the value of Raw reads reported for SVMNVFGGNAAT when tested on TLR10 (Homo sapiens, UniProt Q9BXR5).
Result :: 28

Query :: // fetch Raw reads for TLHFRRQNKIAY ; system: TLR10 (Homo sapiens, UniProt Q9BXR5)
Result :: 1927

Query :: Provide Raw reads, recorded with TLR10 (Homo sapiens, UniProt Q9BXR5), of GVRLNGVIFVSV
Result :: 23

Query :: Fetch value of Raw reads on TLR10 (Homo sapiens, UniProt Q9BXR5) for TMFFRRQNAMAL .
Result :: 72

Query :: Look up and report measured Raw reads (TLR10 (Homo sapiens, UniProt Q9BXR5)) for the following sequence: ALELKHVVVV
Result :: 48

Query :: Report its Raw reads with TLR10 (Homo sapiens, UniProt Q9BXR5) as the test system: SVCVYQHQGIRG
Result :: 3411

Query :: Report Raw reads on TLR10 (Homo sapiens, UniProt Q9BXR5) for this entry: TNPYGGNITM
Result :: 1427

Query :: Specify Raw reads for SLETSHLVIY , system TLR10 (Homo sapiens, UniProt Q9BXR5).
Result :: 34

Query :: Fetch value of Raw reads on TLR10 (Homo sapiens, UniProt Q9BXR5) for SRTNRFGGHMAS .
Result :: 16419

Query :: For TLR10 (Homo sapiens, UniProt Q9BXR5), give Raw reads of the listed sequence: TYWKACAMSHIP
Result :: 231
